B1: Zinc finger homeobox protein 3, residues 2643 to 2698; numbered along this chain, Q15911 (parent)
chain: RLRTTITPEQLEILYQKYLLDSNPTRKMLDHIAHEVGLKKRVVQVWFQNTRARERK

variants of: B1; test: abundance fitness (aPCA) (normalised: wild type 0, dead -1); higher = more abundant; growth selection in yeast, the domain comes from the species named; details: Homo sapiens
Readout Label: abundance fitness

// below: answered variants
K39A :: 0.236
T4M :: 0.068

Bench note: what abundance fitness did L19H show?
-0.14

Do the same for L29F please
0.069

Repeat with T7Y
-0.487

Do the same for R41L please
-0.001

Queued: R3Q
0.353

These data points were gathered from the Human Domainome abundance scans (Beltran et al. 2025).
